- STUDY TARGET: human ferroportin (Homo sapiens, UniProt Q9NP59)
- Construct: luciferase reporter (read with the Nano-Glo Luciferase Assay System); expressed in transfected cells; host or cells: CHO cells, stably transfected, expression induced with doxycycline
- Sequence (Q9NP59 whole entry): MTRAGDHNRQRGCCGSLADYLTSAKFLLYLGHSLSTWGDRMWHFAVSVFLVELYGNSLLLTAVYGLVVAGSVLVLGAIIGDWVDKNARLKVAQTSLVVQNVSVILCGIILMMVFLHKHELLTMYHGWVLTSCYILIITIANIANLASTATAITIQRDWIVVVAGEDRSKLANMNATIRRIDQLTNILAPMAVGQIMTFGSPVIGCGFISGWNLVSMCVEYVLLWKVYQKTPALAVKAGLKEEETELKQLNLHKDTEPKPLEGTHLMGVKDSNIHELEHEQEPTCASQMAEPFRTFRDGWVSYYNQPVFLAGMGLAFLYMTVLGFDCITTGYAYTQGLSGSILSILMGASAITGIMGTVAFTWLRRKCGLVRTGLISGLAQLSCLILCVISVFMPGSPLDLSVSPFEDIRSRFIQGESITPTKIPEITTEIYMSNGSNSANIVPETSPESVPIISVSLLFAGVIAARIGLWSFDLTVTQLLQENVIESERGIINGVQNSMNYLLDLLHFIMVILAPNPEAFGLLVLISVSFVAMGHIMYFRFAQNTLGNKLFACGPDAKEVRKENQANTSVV
- ASSAY EXPLANATION: Biological in-vitro ferroportin internalization assay (luciferase reporter)
- Type: cell-based
- STATED CONDITIONS: average pEC50; stably-transfected CHO cell line expressing human ferroportin tagged to a luciferase reporter; 6 h incubation with test compound
- Protocol: The protocol for this assay is generally as described in WO2018/128828, incorporated herein by reference in its entirety. Functional internalization of ferroportin protein was measured using a stably-transfected CHO cell line expressing the human ferroportin tagged to a luciferase reporter. […] Cells were incubated with the test compounds for 6 h, and subsequently luciferase activity was measured using the Nano-Glo Luciferase Assay System and Glomax (Promega, Madison, Wis.). […]
Recorded pEC50 for the following molecules
Give a plain numeric answer without units written out.

Look over these answered cases.
CN(c1nc(-c2ccccn2)nc2c1CCC2)[C@H](CO)C(=O)NC(C)(C)C = 7
Cc1ccnc(-c2nc3c(c(N(C)CC(=O)NC4(C)CCCC4)n2)CCC3)c1 = 7.7
CC(C)NC(=O)CN(C)c1nc(-c2cc(OCCN3CCSCC3)ccn2)nc2c1CCC2 = 8.8
CN(CC(=O)N1CCC(F)CC1)c1nc(-c2cc(OCCO)ccn2)nc2c1CCC2 = 7.5
CN(c1nc(-c2ccccn2)nc2c1CCC2)[C@H]1CCN(c2ccncc2)C1=O = 5.7
CC(C)NC(=O)CN(C)c1nc(-c2cc(OCCN(C)C)ccn2)nc2c1CCC2(C)C = 6.2

For the molecule `COc1cc(-c2nc3c(c(N(C)CC(=O)Nc4ccc(C)nc4)n2)CCC3)ncc1F` , give its measured pEC50 value. 6.6

Give the measured pEC50 for `COc1ccnc(-c2nc3c(c(N(C)CC(=O)NC(C)(C)CO)n2)CCC3)c1` 7.7

Given the molecule `CN(CC(=O)Nc1cccc(F)c1)c1nc(-c2cc3c(cn2)OCCO3)nc2c1CCC2` , write its reported pEC50. 7.5
